# System: TERT-RPE1
# METHOD SUMMARY: Here: values are normalized to the negative (DMSO; defined as 0% autophagy induction) and positive (250nM Torin1; mTOR inhibitor; defined as maximal inducer of autophagy = 100%) control compounds and represented as % of autophagy induction. […] The impact of autophagy induction on cells is complex and depends on the affected target. As such, the magnitude of a phenotype may not be equally mirrored in the %-value of autophagy induction and vice versa. The dynamics of the induction may indicate the mode of activation: e.g. activation via phosphorylation or a signaling cascade may occur fast, while activation via transcription factors may take considerably longer. […] Of note, treatment concentrations may be sub-optimal for specific compounds, leading to false negative annotations.
# Format: functional, Homo sapiens
# PROTOCOL CONDITIONS: Compound Concentration 1 uM, Timepoint 60 hours, Culturing Media DMEM/F12 (1:1), 1 % Penicillin/Streptomycin, 10% Fetal bovin serum Add-On: No, Screening Media Control DMEM/F12 (1:1), Screening Media Samples DMEM/F12 (1:1)
Decision: autophagy induction >= -10% yields criterion met, all other cases yield criterion not met.

The examples below pair each entry with its known result.
Given the entry CC(C)c1c(CN(C)C(C)Cc2ccccc2)n(C)n(-c2ccccc2)c1=O (stereo not drawn) , answer whether its autophagy induction meets or surpasses -10%. criterion not met

Record Cc1cc(SCc2sc(-c3ccc(C(F)(F)F)c(F)c3)nc2C)ccc1OCC(=O)O ; criterion: autophagy induction no lower than -10%. Met? criterion met

autophagy induction >= -10% for CSc1ccc(C(=O)/C=C/c2cc(C)c(OC(C)(C)C(=O)O)c(C)c2)cc1 ? criterion not met

Please indicate if the recorded autophagy induction for O=C(O)c1ccnc(N2CC(O)(c3ccc(OCc4c(-c5c(Cl)cccc5Cl)noc4C4CC4)cc3Cl)C2)c1 [CILOFEXOR] meets or exceeds -10%. criterion met

Entry O=C(O)c1cc(F)c2nc(N3[C@@H]4CC[C@H]3C[C@@H](OCc3c(-c5ccccc5OC(F)(F)F)noc3C3CC3)C4)sc2c1 [TROPIFEXOR] : is its autophagy induction no less than -10%? criterion not met

Check if autophagy induction >= -10% (inclusive). Item: O=S(=O)(Nc1ccc(C(O)(C(F)(F)F)C(F)(F)F)cc1)c1cccs1 criterion not met

Next:
Evaluate CC1(C)CCC(C)(C)c2cc(NC(=O)c3ccc(C(=O)O)cc3)ccc21 : autophagy induction at minimum -10%? criterion met

autophagy induction >= -10% for CCCCCNC(=O)N1CCC(CN(Cc2ccc(Cl)cc2)Cc2ccc([N+](=O)[O-])s2)C1 (stereo not drawn) ? criterion not met
